# System name: SARS-CoV-2 M^pro (Severe acute respiratory syndrome coronavirus 2)
pIC50: −log10 of the molar value. *1 amine or outer side, *2 acyl side, *3 side chain or, on linkers, in order; H or OH if unused. Where a SMILES comes first, the peptide text is derived from it. Bridges are numbered along the chain shown (N, C = ends). [ ]: non-standard residue; d: D form. X1 = O=C([C@@H]1CCC[C@@H]1N[*:1])[*:2]
Quantity name: pIC50

1) CC(C)C[C@@H]1NC(=O)[C@H](CC(N)=O)NC(=O)[C@H](Cc2c[nH]cn2)NC(=O)[C@H](Cc2ccccc2)NC(=O)[C@@H]2CCC[C@@H]2NC(=O)[C@H](Cc2c[nH]cn2)NC(=O)[C@H](Cc2ccccc2)NC(=O)[C@@H](Cc2ccc(O)cc2)NC(=O)CSC[C@H](C(N)=O)NC(=O)[C@H](Cc2c[nH]cn2)NC(=O)[C@H](CC(C)C)NC(=O)[C@H](CCCNC(=N)N)NC(=O)[C@H](Cc2ccccc2)NC1=O [BM5, ^AcyFHβ^1FHNLFRLHc-NH2] ({CH2CO}-[dY]FH[X1]FHNLFRLH[dC]-NH2; thioether N-13)
6.44

====

# Kd per entry for UniProtKB P0DTD1
*1 amine or outer side, *2 acyl side, *3 side chain or, on linkers, in order; H or OH if unused. Where a SMILES comes first, the peptide text is derived from it. Bridges are numbered along the chain shown (N, C = ends). [ ]: non-standard residue; d: D form. X1 = O=C([C@@H]1CCC[C@@H]1N[*:1])[*:2]
Quantity name: Kd (nM)

1) CC(C)C[C@@H]1NC(=O)[C@H](Cc2c[nH]cn2)NC(=O)[C@H](Cc2ccc(O)cc2)NC(=O)[C@@H]2CCC[C@@H]2NC(=O)[C@H](CC(=O)O)NC(=O)[C@H](Cc2ccccc2)NC(=O)[C@@H](Cc2ccc(O)cc2)NC(=O)CSC[C@H](C(N)=O)NC(=O)[C@H](CCCNC(=N)N)NC(=O)[C@@H]2CCC[C@@H]2NC(=O)[C@H](CC(N)=O)NC1=O [BM7, ^AcyFDβ^1YHLNβ^1Rc-NH2] ({CH2CO}-[dY]FD[X1]YHLN[X1]R[dC]-NH2; thioether N-11)
9.6
2) CC(C)C[C@@H]1NC(=O)[C@H](CC(N)=O)NC(=O)[C@H](Cc2c[nH]cn2)NC(=O)[C@H](Cc2ccccc2)NC(=O)[C@@H]2CCC[C@@H]2NC(=O)[C@H](Cc2c[nH]cn2)NC(=O)[C@H](Cc2ccccc2)NC(=O)[C@@H](Cc2ccc(O)cc2)NC(=O)CSC[C@H](C(N)=O)NC(=O)[C@H](Cc2c[nH]cn2)NC(=O)[C@H](CC(C)C)NC(=O)[C@H](CCCNC(=N)N)NC(=O)[C@H](Cc2ccccc2)NC1=O [BM5, ^AcyFHβ^1FHNLFRLHc-NH2] ({CH2CO}-[dY]FH[X1]FHNLFRLH[dC]-NH2; thioether N-13)
22

====

# reported half-life at 10 μM; entries follow
# Assay summary: Serum stability assay in human serum, LC/MS
# Type: in vitro ADME
# Assay conditions: 37 °C, peptide 10 μM, up to 168 h, mean ± s.d. (n = 3), read-out: t1/2 in serum (converted)
*1 amine or outer side, *2 acyl side, *3 side chain or, on linkers, in order; H or OH if unused. Where a SMILES comes first, the peptide text is derived from it. Bridges are numbered along the chain shown (N, C = ends). [ ]: non-standard residue; d: D form. ACHC(1S,2S) = O=C([C@H]1CCCC[C@@H]1N[*:1])[*:2]
Quantity name: half-life at 10 μM (h)

1) CC(C)C[C@@H]1NC(=O)[C@H]2CCCC[C@@H]2NC(=O)[C@H](CC(N)=O)NC(=O)[C@H](CC(=O)O)NC(=O)[C@H](Cc2ccc(O)cc2)NC(=O)[C@H](CCCNC(=N)N)NC(=O)[C@H](Cc2c[nH]cn2)NC(=O)[C@H](Cc2ccccc2)NC(=O)[C@@H](Cc2ccc(O)cc2)NC(=O)CSC[C@H](C(N)=O)NC(=O)[C@H](Cc2ccc(O)cc2)NC(=O)[C@H](C(C)C)NC1=O [BM3, ^AcyFHRYDNβ^2LVYc-NH2] ({CH2CO}-[dY]FHRYDN[ACHC(1S,2S)]LVY[dC]-NH2; thioether N-12)
48
2) CC(C)C[C@@H]1NC(=O)[C@H](C)NC(=O)[C@H](CC(N)=O)NC(=O)[C@H](CC(=O)O)NC(=O)[C@H](Cc2ccc(O)cc2)NC(=O)[C@H](CCCNC(=N)N)NC(=O)[C@H](Cc2c[nH]cn2)NC(=O)[C@H](Cc2ccccc2)NC(=O)[C@@H](Cc2ccc(O)cc2)NC(=O)CSC[C@H](C(N)=O)NC(=O)[C@H](Cc2ccc(O)cc2)NC(=O)[C@H](C(C)C)NC1=O [BM3A, ^AcyFHRYDNA LVYc-NH2] ({CH2CO}-[dY]FHRYDNALVY[dC]-NH2; thioether N-12)
4.6
3) CC(C)C[C@@H]1NC(=O)[C@H](Cc2c[nH]cn2)NC(=O)[C@H](Cc2ccc(O)cc2)NC(=O)[C@H](C)NC(=O)[C@H](CC(=O)O)NC(=O)[C@H](Cc2ccccc2)NC(=O)[C@@H](Cc2ccc(O)cc2)NC(=O)CSC[C@H](C(N)=O)NC(=O)[C@H](CCCNC(=N)N)NC(=O)[C@H](C)NC(=O)[C@H](CC(N)=O)NC1=O [BM7A, ^AcyFDA YHLNA Rc-NH2] ({CH2CO}-[dY]FDAYHLNAR[dC]-NH2; thioether N-11)
4.2

====

# System name: SARS-CoV-2 M^pro (Severe acute respiratory syndrome coronavirus 2, UniProt P0DTD1)
*1 amine or outer side, *2 acyl side, *3 side chain or, on linkers, in order; H or OH if unused. Where a SMILES comes first, the peptide text is derived from it. Bridges are numbered along the chain shown (N, C = ends). [ ]: non-standard residue; d: D form. X1 = O=C([C@@H]1CCC[C@@H]1N[*:1])[*:2]
Quantity name: Kd

1) CC(C)C[C@@H]1NC(=O)[C@H](CO)NC(=O)[C@H](CCCNC(=N)N)NC(=O)[C@H](Cc2ccccc2)NC(=O)[C@@H]2CCC[C@@H]2NC(=O)[C@H](Cc2c[nH]cn2)NC(=O)[C@H](Cc2ccccc2)NC(=O)[C@@H](Cc2ccc(O)cc2)NC(=O)CSC[C@H](C(N)=O)NC(=O)CNC(=O)[C@H](Cc2ccccc2)NC(=O)[C@H](C(C)C)NC(=O)[C@H](Cc2ccccc2)NC1=O [BM6, ^AcyFHβ^1FRSLFVFGc-NH2] ({CH2CO}-[dY]FH[X1]FRSLFVFG[dC]-NH2; thioether N-13)
2.9 nM
2) CC(C)C[C@@H]1NC(=O)[C@@H](Cc2ccc(O)cc2)NC(=O)CSC[C@H](C(N)=O)NC(=O)[C@H](Cc2ccccc2)NC(=O)[C@H](Cc2c[nH]cn2)NC(=O)[C@@H]2CCCN2C(=O)[C@H](CC(N)=O)NC(=O)[C@@H]2CCC[C@@H]2NC(=O)[C@H]([C@@H](C)O)NC(=O)[C@H](Cc2c[nH]cn2)NC1=O [BM4, ^AcyLHTβ^1NPHFc-NH2] ({CH2CO}-[dY]LHT[X1]NPHF[dC]-NH2; thioether N-10)
1200 nM
3) CC(C)C[C@@H]1NC(=O)[C@H](C)NC(=O)[C@H](CC(N)=O)NC(=O)[C@H](CC(=O)O)NC(=O)[C@H](Cc2ccc(O)cc2)NC(=O)[C@H](CCCNC(=N)N)NC(=O)[C@H](Cc2c[nH]cn2)NC(=O)[C@H](Cc2ccccc2)NC(=O)[C@@H](Cc2ccc(O)cc2)NC(=O)CSC[C@H](C(N)=O)NC(=O)[C@H](Cc2ccc(O)cc2)NC(=O)[C@H](C(C)C)NC1=O [BM3A, ^AcyFHRYDNA LVYc-NH2] ({CH2CO}-[dY]FHRYDNALVY[dC]-NH2; thioether N-12)
> 10000 nM

====

# System name: SARS-CoV-2 M^pro (Severe acute respiratory syndrome coronavirus 2, UniProt P0DTD1)
# Construct: also known as 3-chymotrypsin-like cysteine protease (3CL^pro) and nonstructural protein 5 (nsp5)
# Assay summary: biochemical
# Format: binding
# Assay conditions: read-out: ka (kinetic association)
*1 amine or outer side, *2 acyl side, *3 side chain or, on linkers, in order; H or OH if unused. Where a SMILES comes first, the peptide text is derived from it. Bridges are numbered along the chain shown (N, C = ends). [ ]: non-standard residue; d: D form. ACHC(1S,2S) = O=C([C@H]1CCCC[C@@H]1N[*:1])[*:2]; X1 = O=C([C@@H]1CCC[C@@H]1N[*:1])[*:2]
# reported kon; entries follow
Quantity name: kon (M⁻¹ s⁻¹)

1. CC(C)C[C@@H]1NC(=O)[C@@H](Cc2ccc(O)cc2)NC(=O)CSC[C@H](C(N)=O)NC(=O)[C@H](Cc2ccccc2)NC(=O)[C@H](Cc2c[nH]cn2)NC(=O)[C@@H]2CCCN2C(=O)[C@H](CC(N)=O)NC(=O)[C@@H]2CCC[C@@H]2NC(=O)[C@H]([C@@H](C)O)NC(=O)[C@H](Cc2c[nH]cn2)NC1=O [BM4, ^AcyLHTβ^1NPHFc-NH2] ({CH2CO}-[dY]LHT[X1]NPHF[dC]-NH2; thioether N-10)
1700
2. CC(C)C[C@@H]1NC(=O)[C@H](Cc2c[nH]cn2)NC(=O)[C@H](Cc2ccc(O)cc2)NC(=O)[C@@H]2CCC[C@@H]2NC(=O)[C@H](CC(=O)O)NC(=O)[C@H](Cc2ccccc2)NC(=O)[C@@H](Cc2ccc(O)cc2)NC(=O)CSC[C@H](C(N)=O)NC(=O)[C@H](CCCNC(=N)N)NC(=O)[C@@H]2CCC[C@@H]2NC(=O)[C@H](CC(N)=O)NC1=O [BM7, ^AcyFDβ^1YHLNβ^1Rc-NH2] ({CH2CO}-[dY]FD[X1]YHLN[X1]R[dC]-NH2; thioether N-11)
170000
3. CC(C)C[C@@H]1NC(=O)[C@H](CC(N)=O)NC(=O)[C@H](Cc2c[nH]cn2)NC(=O)[C@H](Cc2ccccc2)NC(=O)[C@@H]2CCC[C@@H]2NC(=O)[C@H](Cc2c[nH]cn2)NC(=O)[C@H](Cc2ccccc2)NC(=O)[C@@H](Cc2ccc(O)cc2)NC(=O)CSC[C@H](C(N)=O)NC(=O)[C@H](Cc2c[nH]cn2)NC(=O)[C@H](CC(C)C)NC(=O)[C@H](CCCNC(=N)N)NC(=O)[C@H](Cc2ccccc2)NC1=O [BM5, ^AcyFHβ^1FHNLFRLHc-NH2] ({CH2CO}-[dY]FH[X1]FHNLFRLH[dC]-NH2; thioether N-13)
36000
4. CC(C)C[C@@H]1NC(=O)[C@H]2CCCC[C@@H]2NC(=O)[C@H](CC(N)=O)NC(=O)[C@H](CC(=O)O)NC(=O)[C@H](Cc2ccc(O)cc2)NC(=O)[C@H](CCCNC(=N)N)NC(=O)[C@H](Cc2c[nH]cn2)NC(=O)[C@H](Cc2ccccc2)NC(=O)[C@@H](Cc2ccc(O)cc2)NC(=O)CSC[C@H](C(N)=O)NC(=O)[C@H](Cc2ccc(O)cc2)NC(=O)[C@H](C(C)C)NC1=O [BM3, ^AcyFHRYDNβ^2LVYc-NH2] ({CH2CO}-[dY]FHRYDN[ACHC(1S,2S)]LVY[dC]-NH2; thioether N-12)
810000
